Reference source for all entries: ChEMBL document CHEMBL5360568

Experiment: Selectivity ratio, ratio of IC50 for inhibition of equine serum BuChE to IC50 for inhibition of electric eel AChE

>  <Compound>
CCOP(=O)(OCC)C(Nc1cc(C)ccc1C)c1ccc(OCc2nc3ccccc3c(=O)n2-c2ccc(F)cc2)c(OC)c1 (stereo not given)

>  <Ratio IC50>
45.1

$$$$
>  <Compound>
CCOP(=O)(OCC)C(Nc1cccc(Cl)c1Cl)c1ccc(OCc2nc3ccccc3c(=O)n2-c2ccc(F)cc2)c(OC)c1 (stereo not given)

>  <Ratio IC50>
76

$$$$
>  <Compound>
CCOP(=O)(OCC)C(Nc1ccc(F)cc1)c1ccc(OCc2nc3ccccc3c(=O)n2-c2ccc(F)cc2)c(OC)c1 (stereo not given)

>  <Ratio IC50>
43.9

$$$$
>  <Compound>
CCOP(=O)(OCC)C(Nc1ccccc1C)c1ccc(OCc2nc3ccccc3c(=O)n2-c2ccc(F)cc2)c(OC)c1 (stereo not given)

>  <Ratio IC50>
86

$$$$
>  <Compound>
CCOP(=O)(OCC)C(Nc1ccccc1CC)c1ccc(OCc2nc3ccccc3c(=O)n2-c2ccc(F)cc2)c(OC)c1 (stereo not given)

>  <Ratio IC50>
55.7

$$$$
